assay: chemical genetic growth profiling, strain panel (AID 1159580);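 also: tested at 20 µM; growth read once vehicle control cultures reached saturation at 30 °C; 1 = growth at the plate median or of vehicle wells; lower values mean less growth of the strain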; conditions: S. cerevisiae deletion strains, growth OD, locus YGR040W, strain KSS1, stronger effect = lower value
About 2,000 (36%) of roughly 5,500 compounds were called active. Inconclusive results (about 18%) are left out. This is one part of the list.
Each item that follows carries a reported normalized growth.
// print number alone

Please review the following examples before continuing.
>  <Compound>
CC(O)(CNCc1ccc(Cl)cc1)CSc1ccccc1Cl (stereo unspecified)

>  <normalized growth>
0.927

$$$$
>  <Compound>
Cc1ccc(C(=O)O/N=C(/N)CSc2ncccc2C(F)(F)F)cc1

>  <normalized growth>
0.998

$$$$
>  <Compound>
N/C(CSc1ccc(Cl)cc1)=N/OC(=O)c1ccc(C(F)(F)F)cc1

>  <normalized growth>
0.816

$$$$
>  <Compound>
C/C(=N/Nc1nc(C(C)(C)C)cs1)c1ccc(Cl)c(Cl)c1

>  <normalized growth>
0.945

$$$$
>  <Compound>
CC(C)(C)c1cc2nc(C(F)(F)F)cc(NNC(=O)c3ccc(Cl)cc3)n2n1

>  <normalized growth>
1.01

$$$$

Here is another compound to look at.
INPUT: // returns reported normalized growth for input `O=C(NNC(=O)c1csc(-c2cccs2)n1)c1ccc(C(F)(F)F)cc1`
OUTPUT: 0.832

----------
experiment: chemical genetic growth profiling, strain panel (AID 1159580);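 also: tested at 20 µM; growth read once vehicle control cultures reached saturation at 30 °C; 1 = growth at the plate median or of vehicle wells; lower values mean less growth of the strain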; conditions: S. cerevisiae deletion strains, growth OD, locus YGR078C, strain PAC10, stronger effect = lower value
The whole screen tested about 5,500 compounds, of which about 2,000 (36%) were called active. Not shown: some 18% with an inconclusive outcome. The list shows a part of the results.
Readout Label: normalized growth
// print number alone

Please review the following examples before continuing.
>  <Compound>
CCCCCCc1ccc(O)cc1O

>  <Measured>
0.882

$$$$
>  <Compound>
CC(=O)Oc1c(-c2ccccc2)oc2c(CC=C(C)C)c3c(c(OC(C)=O)c2c1=O)C=CC(C)(C)O3

>  <Measured>
0.898

$$$$
>  <Compound>
Cn1nnnc1SCC1=C(C(=O)O)N2C(=O)C(NC(=O)C(O)c3ccccc3)C2SC1 (stereo not given)

>  <Measured>
1.05

$$$$

INPUT: // returns reported normalized growth for input CC(=O)O[C@H]1C[C@H](O[C@H]2[C@@H](O)C[C@H](O[C@H]3[C@@H](O)C[C@H](O[C@H]4CC[C@@]5(C)C(CCC6C5C[C@@H](O)[C@]5(C)[C@@H](C7=CC(=O)OC7)CC[C@]65O)C4)O[C@@H]3C)O[C@@H]2C)O[C@H](C)[C@H]1O[C@@H]1O[C@H](CO)[C@@H](O)[C@H](O)[C@H]1O (stereo not given in full)
OUTPUT: 1

INPUT: // returns reported normalized growth for input CC1(NCC(O)COc2cccc3[nH]ccc23)CCC(C(C)(C)NC(=O)CBr)CC1 (stereo not given)
OUTPUT: 1

INPUT: // returns reported normalized growth for input CC(=O)O[C@@H]1CC2C(C)(C)[C@H](O)C[C@H](O)[C@]2(C)C2CC[C@@]3(C)[C@H](c4ccoc4)OC(=O)[C@H]4O[C@]43[C@@]21C (stereo not given in full)
OUTPUT: 1.02

INPUT: // returns reported normalized growth for input `O=C1CCc2cc(OCCCCc3nnnn3C3CCCCC3)ccc2N1`
OUTPUT: 1.02

INPUT: // returns reported normalized growth for input C=CCc1ccccc1OCC(O)CNC(C)C (stereo not given)
OUTPUT: 1.01

INPUT: // returns reported normalized growth for input CC(N)Cc1ccc(O)cc1 (stereo not given)
OUTPUT: 1.01

INPUT: // returns reported normalized growth for input `O=C(/C=C/c1ccccc1)c1ccc(O)cc1`
OUTPUT: 0.429
